target: RSV F protein of subtype A (strain A2) on recombinant mKate-RSV virus (Respiratory syncytial virus subtype A …, UniProt P03420 26-574); experiment: cell-based or functional assay
Can you tell me Neut IC50 (µg/ml) subtype A for the items I'm about to list?
All answers are understood in µg/mL, so give the number only.

Exam item: Value lookup for Neut IC50 (µg/ml) subtype A; key = ADI-18943 (antibody, V domains shown, full-length IgG from yeast) VH: QVQLQESGPGLVKPSETLSLTCSVSGASVTSREYYWGWIRQAPGKGLQWIASIHHSPFQSDGNPSLTSRVSSSVVTSKNQLALRLSSVTAADTAVYYCAGAFWEVWTGLYSPPFDFWGQGILVTVSS VL: EIVMTQSPGTLSLSPGERATLSCWASQTVSSGYLAWYQQKPGQAPRLLIYGASTRATDIPDRFSGSGSGTGFTLTISRLEPEDLAVYYCQQYSSSPLTFGGGTKVEIK
Marked response: 0.027

Exam item: Entry ADI-18977 (antibody, V domains shown, full-length IgG from yeast) VH: QVQLVQSGTEVKKPGASVKISCKTSGYTFTNNVIQWVRQAPGQRLEWMGWISAGNGYTKYSDKFQDRVTITRDTSASTAYMEVSSLTSEDTAMYYCARQVSTSGWHATSHRFAPWGQGTLVTVSS VL: DIQMTQSPSSLSASVGDRVTITCQASQGISRYLNWYQQKPGKAPNLLIYDASNLETGVPSRFSGSGSGTHFTLTISSLQPEDIATYYCQQYDNLPLTFGGGTKVEIK please
Marked response: 0.108
